# test_description: Cytotoxicity test with CellTiter Glo
# Assay type: cell-based
# condition_set: human, HepG2.2.15 cells, highest concentration 150 μM, read-out: CC50 values of the compounds of the invention
experimental_endpoint: CC50 at 4 days

>>> df
                           structure_string  experimental_endpoint  measured
0  COC(=O)C1=C(CN2CCN3C(=O)N(c4ccc(Oc5ccc(C(=O)N6CCCC6(F)F)cc5)cc4)C[C@@H]3C2)NC(c2nccs2)=N[C@H]1c1ccc(F)cc1Cl         CC50 at 4 days  > 150 µM

Query string: I'd like to know its CC50 at 4 days. The compound in question is COC(=O)C1=C(CN2CCN3C(=O)N(c4ccc(Oc5ccc(OC)cc5)cc4)C[C@@H]3C2)NC(c2nccs2)=N[C@H]1c1ccc(F)cc1Cl
Result string: > 150 µM

Query string: I'd like to know its CC50 at 4 days. The compound in question is COC(=O)C1=C(CN2CCN3C(=O)N(c4ccc(-c5ccc(C(=O)O)c(F)c5)c(F)c4)C[C@@H]3C2)NC(c2nccs2)=N[C@H]1c1ccc(F)cc1Cl
Result string: > 150 µM

====

# test_description: Cytotoxicity test with CellTiter Glo
# Format: cell-based
# condition_set: human, HepG2.2.15 cells, highest concentration 150 μM, read-out: CC50 values of the compounds of the invention
The reader will find reported CC50 at 4 days values listed item by item below.

Query string: I'd like to know its CC50 at 4 days. The compound in question is COC(=O)C1=C(CN2CCN3C(=O)N(c4ccc(OC5CCC(C(=O)O)CC5)cc4F)C[C@@H]3C2)NC(c2nccs2)=N[C@H]1c1ccc(F)cc1Cl (some centres unmarked)
Result string: > 150 µM

Query string: I'd like to know its CC50 at 4 days. The compound in question is COC(=O)C1=C(CN2CCN3C(=O)N(c4ccc(Oc5ccc(C(=O)NCc6ccccc6Cl)cc5)cc4)C[C@@H]3C2)NC(c2nccs2)=N[C@H]1c1ccc(F)cc1Cl
Result string: > 150 µM

Query string: I'd like to know its CC50 at 4 days. The compound in question is COC(=O)C1=C(CN2CCN3C(=O)N(c4ccc(Oc5ccc(C(=O)N6CCOCC6)cc5)cc4)C[C@@H]3C2)NC(c2nccs2)=N[C@H]1c1ccc(F)cc1Cl
Result string: > 150 µM

Query string: I'd like to know its CC50 at 4 days. The compound in question is COC(=O)C1=C(CN2CCN3C(=O)N(c4ccc(Oc5ccc(C(=O)NC(C)CO)cc5)cc4)C[C@@H]3C2)NC(c2nccs2)=N[C@H]1c1ccc(F)cc1Cl (some centres unmarked)
Result string: > 150 µM

Query string: I'd like to know its CC50 at 4 days. The compound in question is COC(=O)C1=C(CN2CCN3C(=O)N(CCC#Cc4ccc(C(=O)O)cc4)C[C@@H]3C2)NC(c2nccs2)=N[C@H]1c1ccc(F)cc1Cl
Result string: > 150 µM

====

The reader will find reported CC50 at 4 days values listed item by item below.
# test_description: Cytotoxicity test with CellTiter Glo
# Format: cell-based
# condition_set: human, HepG2.2.15 cells, highest concentration 150 μM, read-out: CC50 values of the compounds of the invention

                           structure_string  experimental_endpoint  measured
0  COC(=O)C1=C(CN2CCN3C(=O)N(CC#Cc4c(C)cc(C#N)cc4C)C[C@@H]3C2)NC(c2nccs2)=N[C@H]1c1ccc(F)cc1Cl         CC50 at 4 days  > 150 µM
1  COC(=O)C1=C(CN2CCN3C(=O)N(c4ccc(Oc5ccc(C(=O)N6CCO[C@H](CCC(=O)O)C6)cc5)cc4)C[C@@H]3C2)NC(c2nccs2)=N[C@H]1c1ccc(F)cc1Cl         CC50 at 4 days  > 150 µM
2  COC(=O)C1=C(CN2CCN3C(=O)N(c4ccc(Oc5ccc(C(=O)N(CCO)CCO)cc5)cc4)C[C@@H]3C2)NC(c2nccs2)=N[C@H]1c1ccc(F)cc1Cl         CC50 at 4 days  > 150 µM

Query string: I'd like to know its CC50 at 4 days. The compound in question is COC(=O)C1=C(CN2CCN3C(=O)N(c4nc(-c5ccc(CCC(=O)O)cc5)cs4)C[C@@H]3C2)NC(c2nccs2)=N[C@H]1c1ccc(F)cc1Cl
Result string: > 150 µM

Query string: I'd like to know its CC50 at 4 days. The compound in question is COC(=O)C1=C(CN2CCN3C(=O)N(c4ccc(Oc5ccc(C(=O)N6CCC(CO)CC6)cc5)cc4)C[C@@H]3C2)NC(c2nccs2)=N[C@H]1c1ccc(F)cc1Cl
Result string: > 150 µM

// data source = patent US11142527B2
